assayRemarks: Plasmodium falciparum growth inhibition, primary screen, strain 3D7, DAPI fluorescence, 100 nL (AID 1184);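 further: parasites grown inside human red blood cells in medium with human serum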
measurementConditions: P. falciparum 3D7 growth, 3 d, higher = more signal
measurementType: z-score

{"compound": "COCCOC(=O)N1C(=O)[C@@]2(c3cc(C#CC4=CCCCC4)ccc31)[C@H](c1ccc(O)cc1)N1[C@H](c3ccccc3)[C@H](c3ccccc3)OC(=O)[C@H]1[C@@H]2C(N)=O", "z-score": -0.0117}
{"compound": "CC(C)(C)OC(=O)CC[C@]12N=C(c3ccc(OCCCO)cc3)O[C@H]1c1ccccc1N(CCS(=O)(=O)c1ccccc1)C2=O", "z-score": -1.96}

Task: Dear colleague, I am looking for the recorded z-score of the following compound: COc1cc2c(cc1O)C(C1CC1)N(Cc1cc3c(cc1Br)OCO3)CC2 (centres undefined)
Output: -2.44

Task: Quick check: z-score of O=C1NC(=O)C2C1C=CC(C(O)Cc1ccccc1)N2Nc1ccc(Cl)cc1Cl (centres undefined) ?
Output: 0.17

Task: Quick check: z-score of `O=C1O[C@H](c2ccccc2)[C@H](c2ccccc2)N2[C@H]1[C@@H](C(=O)Nc1nc3ccccc3s1)[C@]1(C(=O)Nc3ccc(C#CC4(O)CCCCCC4)cc31)[C@H]2c1ccc(OCCO)cc1` ?
Output: -1.8

Task: Fill in: z-score of COc1ccc(COC2OC[C@]3(C)[C@H]4C5=C(CN3C(=O)OC(C)(C)C)[C@H](C)C(CO)C(CO)C5CC[C@@H]24)cc1 (some centres undefined) is ___
Output: -1.04

Task: Which measured z-score value corresponds to `C=C(CCCC)/C(=C/C[C@@H](OC(C)=O)c1ccccc1OCCO)c1cnc2ccccc2c1` ?
Output: -3.01
